Data origin: paper PMC3026871

# ASSAY_EXPLANATION: Plasma pharmacokinetics in patients
# EXPERIMENTAL_CONTEXT: human, plasma, oral, 70 mg, Cmin, Mean (SD), QID/M-7D 70 mg, Day 7, Dose 2, steady state, n=3; 6 hours after the second dose
PARAMETER: concentration at 6 h (nM)
Just the number please, in nM, no unit attached.

Exam item: May I ask what concentration at 6 h has been recorded for O=C(O)c1ccc(Nc2ncc3c(n2)-c2ccc(Cl)cc2C(c2c(F)cccc2F)=NC3)cc1 [MLN8054] ?
Marked response: 1950

###

# ASSAY_EXPLANATION: Plasma pharmacokinetics in patients
# EXPERIMENTAL_CONTEXT: human, plasma, oral, 35 mg, Cmax, Mean (SD), QID-7D 35 mg, Day 7, Dose 2, steady state, n=3
PARAMETER: Cmax (nM)
State the answer as a number, implicitly in nM.

Exam item: Field request: Cmax | item: O=C(O)c1ccc(Nc2ncc3c(n2)-c2ccc(Cl)cc2C(c2c(F)cccc2F)=NC3)cc1
Marked response: 1970
